test system: P388 leukemia ip, CD2F1 mice, survival T/C; assay: NCI In Vivo Anticancer Drug Screen. Data for tumor model P388 Leukemia (intraperitoneal) in CD2F1 (CDF1) mice; conditions: endpoint: median survival time; dose: 50.0 mg/kg/injection; schedule: Q01DX009 (ip); vehicle: saline with Tween-80
Toxic doses and inconclusive results are not listed. The calls were made as follows: active = survival T/C of 150% or more; inactive = T/C below 125% in these data.
Possible outcomes: 1.0 (active), 0.0 (inactive)

• CN(CCCN(C)CCC1CCCCC1)CCC1CCCCC1 = 0.0
• Cc1ccc(NCCN(C)C)c2c(=O)c3cccc(O)c3sc12 = 0.0
• COc1cc2cc3c4ccc(OC)c(OC)c4cc[n+]3c(C)c2cc1OC (tested in a mixture with another compound) = 1.0
• O=C(c1ccccc1)N(C(=O)c1ccccc1)c1ccccn1 = 0.0
• Cc1cc(=O)n2c(n1)Nc1ccc(Cl)cc1C2 = 0.0

----------
T/C by entry:
Test system: P388 leukemia ip, CD2F1 mice, survival T/C
Experiment: NCI In Vivo Anticancer Drug Screen. Data for tumor model P388 Leukemia (intraperitoneal) in CD2F1 (CDF1) mice
Conditions: endpoint: median survival time; dose: 12.5 mg/kg/injection; schedule: Q01DX009 (ip); vehicle: saline with Tween-80; higher = longer survival
Procedure: The antitumor activity of compounds was measured in mice bearing transplantable tumors. Survival or tumor size were measured and the results are expressed as the measurement made in the treated group (T) divided by the measurement made in the vehicle treated control group (C). The tumor model used in this assay is P388 Leukemia (intraperitoneal) in CD2F1 (CDF1) mice
Inconclusive results and toxic doses are left out.
ENDPOINT NAME: T/C

- CS(=O)(=O)OCCF: 89 % of control
- CC1(CO)CSC(Nc2ccc(Cl)c(Cl)c2)=N1 (centres undefined): 102 % of control
- N#C/C(=C1/NC(=O)c2ccccc21)c1nc2ccccc2n1CCO: 92 % of control
- NCCCNCCSP(=O)(O)O: 106 % of control

----------
system: P388 leukemia ip, CD2F1 mice, survival T/C; assay: NCI In Vivo Anticancer Drug Screen. Data for tumor model P388 Leukemia (intraperitoneal) in CD2F1 (CDF1) mice; settings: endpoint: median survival time; dose: 100.0 mg/kg/injection; schedule: Q01DX005 (ip); vehicle: saline with Tween-80; higher = longer survival
Inconclusive results and toxic doses are left out.
Listed here: items and their measured T/C.
ENDPOINT NAME: T/C

* N#Cc1c(C(=O)NN)cc(-c2ccc3ccccc3c2)[nH]c1=O | 98 % of control
* CCCCCN(CCCCC)CC(=O)c1ccc2cc(Br)c3ccccc3c2c1 | 101 % of control
* CCc1ccc2c(-c3ccccc3)c3ccccc3c(-c3ccccc3)c2c1 | 90 % of control
* O=C(N/N=C/c1cccc(O)c1O)c1ccccc1 | 109 % of control
* CC(=O)O/N=C(C)/C(C)=N/Nc1ccccc1 | 89 % of control
* CC(C)NC(=O)OCC#CCOC(=O)NC(C)C | 90 % of control
* COc1ccccc1NC(=O)C1=C(C)NC(C)=C(C(=O)Nc2ccccc2OC)C1c1ccc(Cl)cc1Cl | 103 % of control
* O=c1c2ccccc2sc2cccc(NCCN3CCC(C4CCN(CCNc5cccc6sc7ccccc7c(=O)c56)CC4)CC3)c12 | 92 % of control
* O=C(CCN1CCCCC1)Nc1ccc(F)cc1F | 99 % of control
* CCCCCCC(=O)/C=C/c1cc(Cl)cc(Cl)c1 | 91 % of control
* ON(C=S)c1ccccc1 | 105 % of control
* N#C/C(=C1/OC(=N)C(c2ccc(Cl)cc2)C1=O)c1ccc(Cl)cc1 (configuration not stated) | 99 % of control
* C/C(=N\NC(=S)Nc1ccc(C(=O)O)cc1C)c1ccc2ccccc2n1 | 107 % of control
* CC(NC(=O)C(C)Oc1ccc(Cl)cc1Cl)C(=O)O (configuration not stated) | 99 % of control
* N#CCSCC(=O)c1ccccc1 | 105 % of control
* CCOC(=O)CNC(=O)NC(Cc1ccccc1)C(=O)OCC (configuration not stated) | 97 % of control
* C1CCOCCOCCOCCOCCOCCCCCC2(CC1)OCCO2 | 94 % of control
